Target: Human immunodeficiency virus type 1 integrase (Human immunodeficiency virus 1, UniProt Q7ZJM1)
Sequence (Q7ZJM1 whole entry): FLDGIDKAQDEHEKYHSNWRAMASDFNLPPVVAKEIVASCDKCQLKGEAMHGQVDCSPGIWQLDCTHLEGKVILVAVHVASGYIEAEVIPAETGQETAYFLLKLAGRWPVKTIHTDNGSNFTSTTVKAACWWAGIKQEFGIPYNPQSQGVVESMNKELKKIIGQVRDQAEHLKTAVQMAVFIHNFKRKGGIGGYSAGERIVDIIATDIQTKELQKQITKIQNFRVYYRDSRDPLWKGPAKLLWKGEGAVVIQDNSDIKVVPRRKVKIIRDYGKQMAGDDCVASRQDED
Test: Inhibition of HIV1 integrase long terminal repeat cleavage activity
metric: IC50 (mM)
A number alone suffices; assume mM.

Prompt line: What value of IC50 has been recorded for this entry: CC(C)C[C@@H]1NC(=O)[C@@H]2CCCN2C(=O)[C@H](C(C)C)NC(=O)c2csc(n2)CNC(=O)c2csc(n2)[C@H](CCC(N)=O)NC1=O
Response line: 5
